Sourced from PubChem BioAssay AID1159580

assay: chemical genetic growth profiling, strain panel (AID 1159580);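 further: tested at 20 µM; growth read once vehicle control cultures reached saturation at 30 °C; 1 = growth at the plate median or of vehicle wells; lower values mean less growth of the strain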; conditions: S. cerevisiae deletion strains, growth OD, locus YLR058C, strain SHM2 (second series), hits give low values
Screen size: about 5,500 compounds; about 2,000 (36%) were called active. About 18% were inconclusive and are not listed. Some of the results follow.

COMPOUND	normalized growth
CCCc1cnc(N2CCCN(C(=S)Nc3cccnc3)CC2)nc1	0.996
Cc1cc(NC(=O)c2c(-c3c(Cl)cccc3Cl)noc2C)c([N+](=O)[O-])cc1C	0.983
Cc1ccc(NC(=S)NCCO)c(C)c1	0.996
CC(=O)CC(=O)Nc1ccccc1Cl	1.01
COC(=O)c1sccc1-c1ccc(C(C)=O)o1	0.965
CC(=O)c1ccc(-c2cccs2)s1	0.972
O=C(CSCc1cccc2ccccc12)NNC(=S)Nc1ccccc1Cl	0.978
O=[N+]([O-])c1ccc(N2CCCN(C(=S)Nc3ccc(Cl)cc3Cl)CC2)nc1	0.96
Cc1onc(-c2c(F)cccc2Cl)c1C(=O)c1ccc(F)cc1	0.987
N#C/C(=C\c1cccn1-c1ccc(OC(F)(F)F)cc1)S(=O)(=O)c1ccccc1	0.995
CC(=O)c1cnn(-c2ccccc2)c1C	0.998
Cc1onc(-c2c(Cl)cccc2Cl)c1C(=O)OCC(F)(F)F	1.01
Clc1cccc(NC2=NCCS2)c1Cl	1
COC(=O)C1=C(C)NC(C)=C(C(=O)OC)C1c1ccc(-c2ccsc2C(=O)OC)o1	0.999
CCOC(=O)Cn1c(=O)c(C#N)cn(C(C)C)c1=O	1.01
Cc1nc(-c2ccc(S(=O)(=O)N3CCN(c4ncnc5scc(-c6ccccc6)c45)CC3)s2)cs1	1.01
O=[N+]([O-])c1ccc2c(c1)NC(c1ccc([N+](=O)[O-])s1)O2 (configuration not stated)	0.0478
Cc1cccc2c1N(C(=S)Nc1ccccc1Cl)CCC2	0.95
OC(CN1CCN(c2nc3ccc(Cl)cc3s2)CC1)CN1CCCN(c2ncc(C(F)(F)F)cc2Cl)CC1 (configuration not stated)	0.999
N#Cc1ncc(C(F)(F)F)cc1Oc1ccc(Cl)cc1	0.829
CN1c2ccccc2C(=O)NC1c1ccc([N+](=O)[O-])s1 (configuration not stated)	0.995
Nc1ccc(N=Nc2ccc(S(N)(=O)=O)cc2)c2ccccc12	1.01
COc1ccc(C(C)=O)cc1CSC(=NS(=O)(=O)c1ccccc1)Nc1cccc(F)c1	1
Clc1ccc(C2=CSC3=NCCCN23)cc1	1.01
O=C(c1ccccc1)c1cc2c(cc1Br)OCCO2	0.956
N#CCC(=O)Nc1ccccn1	0.995
Cc1ccc(-n2cccc2)c(NC(=S)Nc2ccc(Br)cc2OC(F)(F)F)c1	1.01

###

Listed here: items and their measured normalized growth.
assay: chemical genetic growth profiling, strain panel (AID 1159580);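 further: tested at 20 µM; growth read once vehicle control cultures reached saturation at 30 °C; 1 = growth at the plate median or of vehicle wells; lower values mean less growth of the strain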; conditions: S. cerevisiae deletion strains, growth OD, locus YNL153C, strain GIM3, hits give low values
The whole screen tested about 5,500 compounds, of which about 2,000 (36%) were called active. Roughly 18% stayed inconclusive and do not appear here. Some of the results follow.

COMPOUND	normalized growth
C#CCCCCCCCCCCCC(O)CC(O)COC(C)=O (stereo not given)	0.994
COC(=O)C1=CCCN(C)C1	0.983
O=C(O)C1CCNCC1	1.01
CC1CNCCN1S(=O)(=O)c1cccc2cnccc12 (stereo not given)	0.991
CC(C)NCC(O)c1cc(O)cc(O)c1 (stereo not given)	1.01
CCCNC1CCc2nc(N)sc2C1 (stereo not given)	1
CC(=O)OCC(COC(C)=O)OC(C)=O	1.02
Nc1ccc(N=Nc2ccc(S(N)(=O)=O)cc2)c2ccccc12	1
Nc1ccc(N=Nc2ccccc2)c(N)n1	0.975
CC1(C)NC(=O)N(c2ccc([N+](=O)[O-])c(C(F)(F)F)c2)C1=O	1.01
N#Cc1c(N)oc(-c2ccco2)c1-c1ccco1	0.987
N#CC(C#N)=Cc1ccc(-c2cc(C(F)(F)F)ccc2Cl)o1	1.02
Cn1c(=O)c2[nH]cnc2n(C)c1=O	0.988
CC(=O)Oc1c(C)cccc1C(=O)O	1.01
C=C1CCC2C(CC2(C)C)C(=C)CC/C1=N\O (stereo not given)	0.972
